pKi: −log10 of the molar value.
Here we list compounds with their recorded pKi when tested on UniProt O43570.
Sequence (O43570 whole entry): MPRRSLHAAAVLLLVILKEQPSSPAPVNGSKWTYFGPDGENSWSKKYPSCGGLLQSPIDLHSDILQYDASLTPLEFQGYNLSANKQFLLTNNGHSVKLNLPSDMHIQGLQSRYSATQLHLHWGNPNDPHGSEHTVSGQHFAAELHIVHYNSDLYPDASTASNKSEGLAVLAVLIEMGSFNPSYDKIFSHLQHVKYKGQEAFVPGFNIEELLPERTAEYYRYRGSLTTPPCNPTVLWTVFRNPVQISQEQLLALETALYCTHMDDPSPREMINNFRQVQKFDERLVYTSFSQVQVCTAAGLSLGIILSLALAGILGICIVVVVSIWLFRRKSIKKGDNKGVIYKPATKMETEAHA

Name the reported pKi value associated with the compound OB(O)c1ccccc1
< 4.30

Name the reported pKi value associated with the compound CC(C)C[C@H](NC(=O)[C@H](Cc1ccccc1)NC(=O)c1cnccn1)B(O)O
5.23

Name the reported pKi value associated with the compound OB1OCc2ccccc21
< 4.30

----------
# SYSTEM_NAME: Carbonic anhydrase 1 (Homo sapiens)
# Sequence (P00915 whole entry): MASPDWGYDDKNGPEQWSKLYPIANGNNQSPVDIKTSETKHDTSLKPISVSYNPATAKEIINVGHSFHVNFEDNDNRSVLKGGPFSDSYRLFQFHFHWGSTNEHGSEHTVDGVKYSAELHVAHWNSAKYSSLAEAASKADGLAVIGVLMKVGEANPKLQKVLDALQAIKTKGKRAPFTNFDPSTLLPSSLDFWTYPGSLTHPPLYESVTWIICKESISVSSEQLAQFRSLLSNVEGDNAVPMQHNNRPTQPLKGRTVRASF
pKi: −log10 of the molar value.
OBSERVED_PROPERTY: pKi

Param readout= pKi; system= Carbonic anhydrase 1 (Homo sapiens); entry= OB(O)c1ccccc1 ; returns value.
< 4.30

The measured values listed here are drawn from ChEMBL document CHEMBL4043074.
